Give IC50 for every item shown.
Target: PDE2A (Homo sapiens (Human), UniProt O00408)
Sequence (O00408 2-941): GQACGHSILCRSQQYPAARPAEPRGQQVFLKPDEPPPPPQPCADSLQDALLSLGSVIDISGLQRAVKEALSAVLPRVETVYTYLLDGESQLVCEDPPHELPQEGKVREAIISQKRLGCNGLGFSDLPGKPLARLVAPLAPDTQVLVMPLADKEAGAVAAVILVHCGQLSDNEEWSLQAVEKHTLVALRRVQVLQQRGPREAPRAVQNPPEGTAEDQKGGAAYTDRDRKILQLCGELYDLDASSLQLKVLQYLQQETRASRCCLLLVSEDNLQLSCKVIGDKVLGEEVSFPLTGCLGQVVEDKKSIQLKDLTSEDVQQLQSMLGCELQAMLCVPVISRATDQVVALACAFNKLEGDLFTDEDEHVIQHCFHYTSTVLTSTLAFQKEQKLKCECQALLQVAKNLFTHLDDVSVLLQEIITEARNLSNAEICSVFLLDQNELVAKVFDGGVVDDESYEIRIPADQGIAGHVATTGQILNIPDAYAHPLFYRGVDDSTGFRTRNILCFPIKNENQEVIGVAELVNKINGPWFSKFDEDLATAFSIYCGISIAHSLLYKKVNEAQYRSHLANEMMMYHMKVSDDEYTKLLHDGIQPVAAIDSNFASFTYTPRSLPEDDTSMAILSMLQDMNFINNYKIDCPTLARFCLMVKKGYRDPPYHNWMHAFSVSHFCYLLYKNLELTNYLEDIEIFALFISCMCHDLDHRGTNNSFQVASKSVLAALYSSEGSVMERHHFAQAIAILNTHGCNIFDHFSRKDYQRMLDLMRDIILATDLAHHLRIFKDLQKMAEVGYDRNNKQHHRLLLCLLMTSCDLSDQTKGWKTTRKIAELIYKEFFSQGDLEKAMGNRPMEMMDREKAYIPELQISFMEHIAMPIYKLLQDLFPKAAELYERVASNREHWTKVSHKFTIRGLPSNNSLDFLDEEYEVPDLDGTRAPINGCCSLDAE
Assay: IMAP TR-FRET PDE2A enzymatic assay
Format: biochemical
Conditions: FLAG-tagged PDE2A1 (amino acids 2-941), 200 nM FAM-cAMP substrate, 11-point half-log dose-response; read-out: PDE2 (pIC50) (converted)

Input: Give the measured IC50 of "Cc1nc2c(c(C3CC3)nn2[C@H](C)c2ccc(C(F)(F)F)cn2)c(=O)[nH]1" .
Output: 1 to 10 µM

Input: Give the measured IC50 of "CC[C@H](c1ccc(C(F)(F)F)nc1)n1nc(C2CC2)c2c(=O)[nH]c(Cc3ccc(F)cn3)nc21" .
Output: 1 to 10 µM

Input: Give the measured IC50 of "COc1ccc(Cc2nc3c(c(C4CC4)nn3[C@H](C)c3ccc(C(F)(F)F)nc3)c(=O)[nH]2)nc1" .
Output: 0.1 to 1 µM

Please supply IC50 for each of the following items, keeping them in order.
1. CC[C@H](c1ccc(C(F)(F)F)nc1)n1nc(C2CC2)c2c(=O)[nH]c(C)nc21
2. CC[C@H](c1ccc(C(F)(F)F)cn1)n1nc(C2CC2)c2c(=O)[nH]c(C)nc21
3. CC(c1ccc(C(F)(F)F)nc1)n1nc(C2CC2)c2c(=O)[nH]c(Cc3ccc(F)cn3)nc21 (stereo not shown)
4. CCC(c1ccc(C(F)(F)F)nc1)n1nc(C2CCC2)c2c(=O)[nH]c(C)nc21 (stereo not shown)
5. Cc1nc2c(c(C3CC3)nn2[C@H](C)c2ccc(C(F)(F)F)nc2)c(=O)[nH]1
6. CCC(c1ccc(C(F)(F)F)nc1)n1nc(C2CC2)c2c(=O)[nH]c(C)nc21 (stereo not shown)
7. C[C@@H](c1ccc(C(F)(F)F)nc1)n1nc(C2CC2)c2c(=O)[nH]c(Cc3ccc(F)cn3)nc21

Output:
["1 to 10 µM", "1 to 10 µM", "0.1 to 1 µM", "> 10 µM", "1 to 10 µM", "0.1 to 1 µM", "0.1 to 1 µM"]
